Values from BindingDB's records for doi:10.1016/s0960-894x(00)00485-6

- Method: Dissociation constant of compound was evaluated from its IC50 against tryptase at different concentrations
pKd: −log10 of the molar value.
Property: pKd

NC(N)=Nc1ccc(CNC(=O)N2CCN(C(=O)O[C@@H]3CO[C@H]4[C@@H]3OC[C@H]4OC(=O)N3CCN(C(=O)NCc4ccc(N=C(N)N)cc4)CC3)CC2)cc1 | 10.00
